- Test system: CCRF-CEM
- assay.remarks: NCI tumour cell line growth inhibition, 48 h
Calls of active or inactive are those of the source. Cut-off read from the data, not from the text of the source: active = GI50 up to about 1.1 µM and inactive = higher.
Labels: active, inactive

# molecule, tested.on, class.name
data = [
    ("CN(C)CCNC(=O)c1ccc(C(=O)NCCN(C)C)c2nc3ccccc3cc12", "CCRF-CEM", "active"),
    ("CCOC(=O)c1csc(C(CSCc2ccc(OC)cc2)N2C(=O)c3ccccc3C2=O)n1 (stereo not given)", "CCRF-CEM", "inactive"),
    ("Cc1cc(C)c2c(c1)CC1(Cc3c(C)ccc(C)c3C1=O)C2=O (stereo not given)", "CCRF-CEM", "inactive"),
    ("N#Cc1cccc(C2C(=O)c3ccc(C(=O)c4ccc5c(c4)C(=O)N(c4ccc(Oc6ccc(N7C(=O)c8ccc(C(=O)c9ccc%10c(c9)C(=O)N(c9cccc(C#N)c9)C%10=O)cc8C7=O)cc6)cc4)C5=O)cc3C2=O)c1 (stereo not given)", "CCRF-CEM", "inactive"),
    ("CC12CCC(C1)C(C)(C)C2OC(=O)c1ccccc1N (stereo not given)", "CCRF-CEM", "active"),
    ("COC1=CC(=O)C2C(C1=O)C(c1ccc(OC)c(OC)c1)[C@H]2C (stereo not given in full)", "CCRF-CEM", "inactive"),
    ("COC(=O)CC(SCCO)SCCO", "CCRF-CEM", "inactive"),
    ("COc1ccc2nccc(C3=CCC4CCN(C(=O)c5ccccc5)C3C4)c2c1 (stereo not given)", "CCRF-CEM", "inactive"),
    ("Cc1nn(-c2ccccc2)c2c1CC(=O)Nc1ccccc1-2", "CCRF-CEM", "active"),
    ("COc1ccc(CNc2nc3cc(C(F)(F)F)ccc3nc2C(=O)O)cc1OC", "CCRF-CEM", "inactive"),
    ("O=C(Nc1nnc(-c2c(Cl)c(Cl)c(Cl)c(Cl)c2-c2nc3cc(C(=O)c4ccccc4)ccc3[nH]2)o1)c1ccc(Cl)cc1", "CCRF-CEM", "inactive"),
    ("Cc1cccc(-c2nnc3s/c(=C\\c4ccc(N(C)C)cc4)c(=O)n23)c1", "CCRF-CEM", "inactive"),
    ("CC(=O)NC(=O)/N=C1\\NCCC(=O)N1CCc1c[nH]c2ccccc12", "CCRF-CEM", "inactive"),
    ("O=[N+]([O-])c1ccc(C[P+](c2ccccc2)(c2ccccc2)c2ccccc2)cc1", "CCRF-CEM", "inactive"),
    ("CC(C)(C)CNC(=O)NCn1cc(-c2ccccc2)nn1", "CCRF-CEM", "inactive"),
    ("Clc1ccc2c(Cl)ncnc2c1", "CCRF-CEM", "inactive"),
    ("C=C[C@@H]1OC(=O)O[C@H]1CO", "CCRF-CEM", "inactive"),
    ("O=C1OC(=O)C2C1C1(c3ccccc3)OC2(c2ccccc2)c2c(Br)c(Br)c(Br)c(Br)c21 (stereo not given)", "CCRF-CEM", "inactive"),
    ("C=CC[C@H](C[C@H](C[C@H](C[C@H](C[C@H](C[C@H](C[C@H](C[C@H](C[C@H](C[C@H](CCCCC)OC)OC)OC)OC)OC)OC)OC)OC)OC)OC", "CCRF-CEM", "inactive"),
    ("O=C1[C@@H]2[C@@H](c3ccccc3)[C@]2(Cl)C(=O)[C@H]2[C@H](c3ccccc3)[C@@]12Cl", "CCRF-CEM", "inactive"),
    ("CC1=NNC(=O)C1C1C(=O)NN=C(c2c[nH]c3ccccc23)C1Br (stereo not given)", "CCRF-CEM", "inactive"),
    ("Cc1nc(-n2nc(-c3ccccc3)cc2-c2ccccc2)sc1C(=O)CC(=O)C(=O)Nc1ccc(O)cc1", "CCRF-CEM", "inactive"),
    ("CC(=O)N1C(=O)/C(=C\\C(=O)c2ccc(Cl)cc2)c2ccccc21", "CCRF-CEM", "inactive"),
    ("C[Si](C)(C)/C=C/CCC(C=O)(CCCl)c1ccccc1 (stereo not given)", "CCRF-CEM", "inactive"),
    ("CC(C)(Cl)C(Br)CCC(Br)(CCl)C(Cl)CBr (stereo not given)", "CCRF-CEM", "inactive"),
    ("C(=C(c1ccc(OC2CCCCO2)cc1)c1ccc(OC2CCCCO2)cc1)c1ccccc1 (stereo not given)", "CCRF-CEM", "active"),
    ("Cc1cc(/N=N/c2c(O)ccc3ccccc23)ccc1/N=N/c1cccc([N+](C)(C)C)c1", "CCRF-CEM", "inactive"),
    ("COc1cc2ccccc2oc1=O", "CCRF-CEM", "inactive"),
    ("CCCCCc1c2nc(c(CCCCC)c3ccc([nH]3)c(CCCCC)c3nc(c(CCCCC)c4ccc1[nH]4)C=C3)C=C2", "CCRF-CEM", "inactive"),
    ("O=C(O)c1cc(=O)c2[nH]c3ccccc3c2s1", "CCRF-CEM", "inactive"),
    ("Cc1ccc(NC(=O)/C(=N\\NC(N)=S)C(C#N)c2ccccc2C)cc1C (stereo not given)", "CCRF-CEM", "inactive"),
    ("O=C1C(/N=N/c2ccc(-c3nc4ccccc4o3)cc2)NC(=S)N1c1ccccc1 (stereo not given)", "CCRF-CEM", "active"),
    ("Cc1c2oc(=O)c(C#N)cc2c2ccccn12", "CCRF-CEM", "inactive"),
    ("CCCCNC(=S)Nn1c(-c2ccccc2)nc2ccccc2c1=O", "CCRF-CEM", "inactive"),
    ("Clc1ccc2nc(-c3ccccc3)nc(Cl)c2c1", "CCRF-CEM", "inactive"),
    ("C(=C1/CCCCC([n+]2ccccc2)=N1)/c1ccccc1", "CCRF-CEM", "inactive"),
    ("N#C/C(=C/n1c(=S)[nH]c2ccccc21)C(N)=O", "CCRF-CEM", "inactive"),
    ("N=C(N)NS(=O)(=O)c1ccc(NNc2c3ccccc3nc3c(C(=O)Nc4ccc(S(=O)(=O)Nc5ncccn5)cc4)cccc23)cc1", "CCRF-CEM", "inactive"),
    ("CCN(CC)CCCOC(=O)/C=C/c1c(C)[nH]c(=O)[nH]c1=O", "CCRF-CEM", "inactive"),
    ("CC1=CC(=O)CC(C)(C)C1/C=C/C(C)=C/C=C/C(C)=C/C=C/C=C(C)/C=C/C=C(C)/C=C/C1=C(C)CC(O)CC1(C)C (stereo not given)", "CCRF-CEM", "inactive"),
]
